Test system: NF-κB pathway, THP1-Dual™ cells
procedureSummary: STING reporter assay in THP1-Dual cells, NF-κB pathway (SEAP, QUANTI-Blue)
Assay type: cell-based, human
condition: Homo sapiens, THP1-Dual, 20 h, THP1-Dual cells, 10% human plasma, 20 hours; SEAP; 100% activation = 100 μM cGAMP; read-out: NFkB (EC50 μM)
measurementType: EC50 (µM)

> print(dat)
                                   compound  experimentalresult
1  COC(=O)c1cc(C#N)cc2cc(CNC(=O)c3cnn4cccnc34)oc12                 3.4
2  COC(=O)c1cc(F)cc2cc(CNC(=O)c3cnccn3)oc12                 3.6
3  CC(C)OC(=O)c1cc(Cl)cc2cc(Cn3cnc4ccncc4c3=O)oc12                  18
4     COC(=O)c1cccc2cc(CNC(=O)c3cnccn3)oc12                  18
5  C[C@@H](OC(=O)c1cc(Cl)cc2cc(CNC(=O)c3cncc4[nH]cnc34)oc12)C(F)(F)F                0.82

1: Cc1ccc(C(=O)OCC(F)(F)F)c2oc(CN3CCc4ccncc4C3=O)cc12
2: O=C(OC1CC(F)(F)C1)c1cc(F)cc2c(Cl)c(CNC(=O)c3cnn4cccnc34)oc12
3: O=C(OCC(F)F)c1cc(F)cc2cc(CNC(=O)c3cnn4cccnc34)oc12
4: C[C@H](NC(=O)c1cnn2cccnc12)c1oc2c(C(=O)O[C@H](C)C(F)(F)F)cc(F)cc2c1Cl
5: CC(C)OC(=O)c1cccc2cc(CN3CCc4ccncc4C3=O)oc12
*Q* Ordering: ascending EC50. Submit the labels in the order that the ranking request calls for.
*A* 2, 3, 4, 1, 5
(2: 0.31 µM, 3: 0.68 µM, 4: 3.8 µM, 1: 7.2 µM, 5: 12 µM)
